Molecular target: human O^6-alkylguanine-DNA alkyltransferase (Homo sapiens, UniProt P16455)
Sequence (P16455 1-207): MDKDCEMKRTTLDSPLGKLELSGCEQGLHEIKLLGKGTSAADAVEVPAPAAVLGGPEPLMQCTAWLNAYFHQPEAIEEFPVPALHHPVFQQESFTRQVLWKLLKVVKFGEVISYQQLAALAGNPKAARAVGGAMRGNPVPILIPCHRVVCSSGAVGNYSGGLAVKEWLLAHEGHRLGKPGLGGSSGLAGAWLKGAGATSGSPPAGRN
Assay: Inactivation of purified recombinant human alkyltransferase (AGT) in vitro, [3H]-methylated DNA substrate
Conditions: absence of β-glucuronidase, 30 min at 37° C., FIG. 2; read-out: inactivation of human AGT: concentration up to which inactive
pIC50: −log10 of the molar value. Counter-ions that a name gives are not always drawn.
The following molecules are listed with their measured pIC50 values.
quantity name: pIC50

O=C(Nc1nc(OCc2ccccc2)c2ncn([C@H]3C[C@H](O)[C@@H](CO)O3)c2n1)OCc1ccc(O[C@@H]2O[C@H](C(=O)O)[C@@H](O)[C@H](O)[C@H]2O)c([N+](=O)[O-])c1 [Prodrug 2, monosodium salt]: < 4.30
O=C(Nc1nc(OCc2ccccc2)c2nc[nH]c2n1)OCc1ccc(O[C@@H]2O[C@H](C(=O)O)[C@@H](O)[C@H](O)[C@H]2O)c([N+](=O)[O-])c1 [Prodrug 1, monosodium salt]: < 4.30

---

experiment: Stability (first-order hydrolysis) of prodrugs in aqueous buffers at 37° C., HPLC; assay type: physicochemical; details: 50 mM morpholinopropane sulfonic acid, pH 7.0, 0.01% NaCl, 37° C.
Structures can show the parent of a compound that is named as a salt.
quantity name: Observed first order rate constant for hydrolysis, kMOPS (min⁻¹)

O=C(Nc1nc(OCc2ccccc2)c2nc[nH]c2n1)OCc1ccc(O[C@@H]2O[C@H](C(=O)O)[C@@H](O)[C@H](O)[C@H]2O)c([N+](=O)[O-])c1 [Prodrug 1, monosodium salt]: 3.77e-06
O=C(Nc1nc(OCc2ccccc2)c2ncn([C@H]3C[C@H](O)[C@@H](CO)O3)c2n1)OCc1ccc(O[C@@H]2O[C@H](C(=O)O)[C@@H](O)[C@H](O)[C@H]2O)c([N+](=O)[O-])c1 [Prodrug 2, monosodium salt]: 1.88e-07

---

test: Stability (first-order hydrolysis) of prodrugs in aqueous buffers at 37° C., HPLC; type: physicochemical; details: modified Dulbecco's medium, 37° C.
Counter-ions that a name gives are not always drawn.
The following compounds are listed with their measured Observed first order rate constant for hydrolysis, kDulbecco values.
quantity name: Observed first order rate constant for hydrolysis, kDulbecco (s⁻¹)

O=C(Nc1nc(OCc2ccccc2)c2nc[nH]c2n1)OCc1ccc(O[C@@H]2O[C@H](C(=O)O)[C@@H](O)[C@H](O)[C@H]2O)c([N+](=O)[O-])c1 [Prodrug 1, monosodium salt]: 7.15e-08
O=C(Nc1nc(OCc2ccccc2)c2ncn([C@H]3C[C@H](O)[C@@H](CO)O3)c2n1)OCc1ccc(O[C@@H]2O[C@H](C(=O)O)[C@@H](O)[C@H](O)[C@H]2O)c([N+](=O)[O-])c1 [Prodrug 2, monosodium salt]: 7.8e-09

---

Test: Stability (first-order hydrolysis) of prodrugs in aqueous buffers at 37° C., HPLC
Format: physicochemical
Conditions: Phosphate buffered saline, pH 7.2, 37° C.
Procedure: Prodrug purity of the prodrugs was determined by HPLC on a Hewlett-Packard LC 1090 Series II system equipped with a Phenomenex 250×4 mm column (5 μm particle size) eluted isocratically at 1 mL/min with acetonitrile/0.1 M triethylammonium acetate (TEAA), pH 7.0, (3:7). Aliquots (100 μL) from prodrug solutions were withdrawn and diluted with 100 μL of a solution of p-nitrobenzyl alcohol (an internal standard) in acetonitrile/0.1 M TEAA (6:4). UV detection was at 254 and 280 nm. […]
Structures can show the parent of a compound that is named as a salt.
The following compounds are listed with their measured Observed first order rate constant for hydrolysis, kPBS values.
quantity name: Observed first order rate constant for hydrolysis, kPBS (min⁻¹)

O=C(Nc1nc(OCc2ccccc2)c2nc[nH]c2n1)OCc1ccc(O[C@@H]2O[C@H](C(=O)O)[C@@H](O)[C@H](O)[C@H]2O)c([N+](=O)[O-])c1 [Prodrug 1, monosodium salt]: 3.86e-06
O=C(Nc1nc(OCc2ccccc2)c2ncn([C@H]3C[C@H](O)[C@@H](CO)O3)c2n1)OCc1ccc(O[C@@H]2O[C@H](C(=O)O)[C@@H](O)[C@H](O)[C@H]2O)c([N+](=O)[O-])c1 [Prodrug 2, monosodium salt]: 6.46e-07

---

The following molecules are listed with their measured Observed first order rate constant for hydrolysis, kTris values.
Assay: Stability (first-order hydrolysis) of prodrugs in aqueous buffers at 37° C., HPLC
Type: physicochemical
Settings: 50 mM Tris-HCl (pH 7.5), 5 mM dithiothreitol, 0.1 mM EDTA, 37° C.
Experimental: Prodrug purity of the prodrugs was determined by HPLC on a Hewlett-Packard LC 1090 Series II system equipped with a Phenomenex 250×4 mm column (5 μm particle size) eluted isocratically at 1 mL/min with acetonitrile/0.1 M triethylammonium acetate (TEAA), pH 7.0, (3:7). Aliquots (100 μL) from prodrug solutions were withdrawn and diluted with 100 μL of a solution of p-nitrobenzyl alcohol (an internal standard) in acetonitrile/0.1 M TEAA (6:4). UV detection was at 254 and 280 nm. […]
Structures can show the parent of a compound that is named as a salt.
quantity name: Observed first order rate constant for hydrolysis, kTris

O=C(Nc1nc(OCc2ccccc2)c2nc[nH]c2n1)OCc1ccc(O[C@@H]2O[C@H](C(=O)O)[C@@H](O)[C@H](O)[C@H]2O)c([N+](=O)[O-])c1 [Prodrug 1, monosodium salt]: 4.06e-06 min⁻¹
O=C(Nc1nc(OCc2ccccc2)c2ncn([C@H]3C[C@H](O)[C@@H](CO)O3)c2n1)OCc1ccc(O[C@@H]2O[C@H](C(=O)O)[C@@H](O)[C@H](O)[C@H]2O)c([N+](=O)[O-])c1 [Prodrug 2, monosodium salt]: 1.55e-07 min⁻¹
